system: Pharbitis purpurea; test: Post-emergence herbicidal activity against PHBPU; format: in vivo; settings: dosage 320 g/ha, rated about 3 weeks after treatment
outcome_measure: Post-emergence herbicidal activity against PHBPU in % (%)
Numbers only; they are read as %.

Worked cases, answers included:
C=C[C@]1(C(=O)N[C@H]2CO[C@@H](C(=O)OC)C2)CC(c2cc(F)cc(F)c2)=NO1 (single isomer, unassigned) :: 90
CC1(C(=O)NC2COC(C(=O)OCc3cccc(F)c3)C2)CC(c2cc(F)cc(F)c2)=NO1 (mixture of isomers) :: 90
C=CC1(C(=O)NC2COC(C(=O)OCc3cccc(F)c3)C2)CC(c2cc(F)cc(F)c2)=NO1 (mixture of isomers) :: 90
CC(C)OC(=O)C1CC(NC(=O)C2(C(C)(F)F)CC(c3cc(F)cc(F)c3)=NO2)CO1 (stereo not shown) :: 90
CCOC(=O)C1CC(NC(=O)C2(C)CC(c3cc(F)cc(F)c3)=NO2)CO1 (mixture of isomers) :: 90
COC(=O)C1CC(NC(=O)C2(C(C)(F)F)CC(c3cc(F)cc(F)c3)=NO2)CO1 (stereo not shown) :: 80
CC1(C(=O)NC2COC(C(=O)O)C2)CC(c2cc(F)cc(F)c2)=NO1 (mixture of isomers) :: 90
CC(F)(F)C1(C(=O)NC2COC(C(=O)O)C2)CC(c2cc(F)cc(F)c2)=NO1 (stereo not shown) :: 90

Consider now this further compound.
Dear colleague, I am looking for the recorded Post-emergence herbicidal activity against PHBPU in % of the following compound: CC1(C(=O)NC2COC(C(=O)OCc3ccccc3)C2)CC(c2cc(F)cc(F)c2)=NO1 (mixture of isomers) 90
